Each recorded value in this set is attributed to PubChem BioAssay (NCI).

Test system: IGROV1 ovarian
ASSAY_INFO: NCI tumour cell line growth inhibition, 48 h
Where a SMILES comes first, the peptide text is derived from it.
Would you kindly list TGI for each of these compounds?

**Q:** Would you mind telling me what TGI value was observed for `O=S(=O)(O)c1cc(N=Nc2cc(S(=O)(=O)O)c3cccnc3c2O)ccc1/C=C/c1ccc(N=Nc2cc(S(=O)(=O)O)c3cccnc3c2O)cc1S(=O)(=O)O` ?
**A:** > 100 µM

**Q:** Please do the same for `Cn1c2ccccc2n2c3ccccc3c(=O)c(C#N)c12` as well.
**A:** > 87 µM

**Q:** Please do the same for `COc1ccc(/C=C/C(=O)c2cc3c(N)c(C(=O)Nc4ccccc4C)sc3nc2C)cc1` as well.
**A:** > 50 µM

**Q:** Please do the same for `CO[C@@]12C[C@H]3[C@@H]([C@@H](O)[C@@H](OC(=O)/C=C/c4ccccc4)[C@@]4(O)C(C)(C)CCC[C@]34C)[C@@H](C)C1=CC(=O)O2` as well.
**A:** > 100 µM

**Q:** Please do the same for `Cc1cc(=O)oc2c(C)c3oc(CBr)c(Br)c3cc12` as well.
**A:** 36.1 µM

**Q:** Please do the same for `O=C(O)/C(=C\c1ccccc1Cl)S(=O)(=O)c1ccccc1` as well.
**A:** > 100 µM

**Q:** Please do the same for `CC(/C=N\NC(=S)N(C)C)=N/NC(=S)N(C)C` as well.
**A:** 16.9 µM

**Q:** Please do the same for `O=C(Cn1c2ccc(Br)cc2c2nc3ccccc3nc21)N/N=C/c1ccccc1` as well.
**A:** > 100 µM

**Q:** Please do the same for `CC(=O)c1cc2c(c3ccsc13)-c1ccccc1CC2` as well.
**A:** > 100 µM

**Q:** Please do the same for `COc1cc2cc(Oc3ccc(NC(=O)Nc4ccc(Cl)c(C(F)(F)F)c4)cc3)c(C)nc2cc1OC` as well.
**A:** 9.83 µM

**Q:** Please do the same for `CN(/N=C\c1ccc2ccccc2c1)C1=NCCN1` as well.
**A:** 41.6 µM

**Q:** Please do the same for C1=CC(=[N+]2N=C(c3ccccc3)CC2c2ccccc2)C=CC1=C1SC(c2ccccc2)(c2ccccc2)c2ccccc21 (stereo not drawn) as well.
**A:** > 100 µM

**Q:** Please do the same for `C(=C\c1nccc2c1[nH]c1ccccc12)/c1ccccc1` as well.
**A:** 23.6 µM

**Q:** Please do the same for O=C(O)C1(Cc2ccc3c(c2)CCC3)Cc2ccccc2C1=O (stereo not drawn) as well.
**A:** > 100 µM

**Q:** Please do the same for `CCOC(=O)c1sc2nc(-c3ccccc3)nn2c1CBr` as well.
**A:** > 10 µM

**Q:** Please do the same for `COc1ccc(/C=C(/C)[N+](=O)[O-])cc1` as well.
**A:** 6.2 µM

**Q:** Please do the same for `O=c1[nH]c(Nc2ccc(Cl)cc2)nc2nc[nH]c12` as well.
**A:** > 100 µM

**Q:** Please do the same for COc1ccc(N2C(=O)[C@@H]3[C@H](C2=O)c2[nH]c4ccccc4c2C2CCC(C(C)(C)C)C[C@@H]23)cc1 (stereo partly drawn) as well.
**A:** > 100 µM

**Q:** Please do the same for CCC(C)C(NC(=O)C1CCCN1C(=O)C(CC(C)C)NC(=O)C(CC(C)C)NC(=O)C(N)CC(C)C)C(=O)NC(C(=O)NCC(=O)NC(CC(N)=O)C(=O)NC(CC(C)C)C(=O)NC(CC(C)C)C(=O)NC(CC(C)C)C(N)=O)C(C)C (stereo not drawn) (H-LLLPIVGNLLL-NH2; configuration not given here) as well.
**A:** > 50 µM

**Q:** Please do the same for `O=C1/C(=C/c2ccccc2)CCc2ccccc21` as well.
**A:** 54.3 µM

**Q:** Please do the same for `CCOC(=O)N[C@H]1CCc2c(Br)c(OC)c(OC)c(OC)c2-c2ccc(SC)c(=O)cc21` as well.
**A:** 16.2 µM

**Q:** Please do the same for `COc1cc(C)c(C)c(OC(=O)c2c(C)c(C)c(OC)c(C)c2OC)c1C` as well.
**A:** > 100 µM

**Q:** Please do the same for CC(C)(C)[Si](C)(C)OCC1C=CC(n2cnc3c(N)ncnc32)O1 (stereo not drawn) as well.
**A:** > 100 µM

**Q:** Please do the same for COc1ccc(C2c3cc4c(cc3OC(O)(CO)C2C(=O)O)OCO4)cc1 (stereo not drawn) (tested in a mixture with another compound) as well.
**A:** 43.5 µM

**Q:** Please do the same for `CC(=O)/C=C/C1=C(c2cccs2)c2ccccc2CC1` as well.
**A:** 49.7 µM

**Q:** Please do the same for `c1cc(-c2cn[nH]c2)cc(-c2cn[nH]c2)c1` as well.
**A:** > 100 µM

**Q:** Please do the same for CSc1nc2c(c(O)c(C)c(=O)n2C2OCC(OC(C)=O)C(OC(C)=O)C2OC(C)=O)c(=O)n1C (stereo not drawn) as well.
**A:** > 100 µM

**Q:** Please do the same for `Clc1ccc(C=NC23CC4CC(CC(C4)C2)C3)cc1Cl` as well.
**A:** > 10 µM

**Q:** Please do the same for `Cc1cc(C)n(C(=O)c2nn(-c3ccc(Cl)cc3)cc2O)n1` as well.
**A:** 73.3 µM

**Q:** Please do the same for `Nc1ccc(-c2nc3cc(F)ccc3s2)cc1CO` as well.
**A:** 63.4 µM

**Q:** Please do the same for `O=C(NCCNCCNC(=O)C(F)(F)F)C(F)(F)F` as well.
**A:** > 100 µM

**Q:** Please do the same for `O=C1c2ccn(CCCCN3CCCCC3)c2C(=O)c2c1c(O)c1ccccc1c2O` as well.
**A:** > 100 µM

**Q:** Please do the same for N#CC(C(=N/NC(N)=S)/C(=N/NC(N)=S)C(C#N)c1ccc(Cl)cc1)c1ccc(Cl)cc1 (stereo not drawn) as well.
**A:** > 100 µM

**Q:** Please do the same for `O=[N+]([O-])[O-].O=[N+]([O-])[O-].[Au].[Au].c1ccc([P-]c2ccccc2)cc1.c1ccc([P-]c2ccccc2)cc1` as well.
**A:** > 100 µM

**Q:** Please do the same for COC(OC)C1OC(CO)C(n2cc(F)c(=O)[nH]c2=O)C1O (stereo not drawn) as well.
**A:** > 100 µM

**Q:** Please do the same for C=C1CC2(CCCC3(CC(=C)C(=O)O3)C2(C)C)OC1=O (stereo not drawn) as well.
**A:** 23.5 µM

**Q:** Please do the same for COc1ccc2c(c1)CCC1=C/C(=N\NC(N)=O)CCC12C (stereo not drawn) as well.
**A:** > 10 µM

**Q:** Please do the same for `CC(C)(Oc1ccc2c(=O)cc(-c3ccccc3)oc2c1)C(=O)Nc1c(Cl)cccc1Cl` as well.
**A:** > 100 µM

* * *

Would you kindly list TGI for each of these compounds?
System: UO-31 renal
ASSAY_INFO: NCI tumour cell line growth inhibition, 48 h

**Q:** Would you mind telling me what TGI value was observed for `COc1cc2c(cc1OCCCCCCCCN1C(=O)c3cccc4cccc(c34)C1=O)N=C[C@@H]1CCCN1C2=O` ?
**A:** > 100 µM

**Q:** Please do the same for `CO[C@@]12C[C@H]3[C@@H]([C@@H](O)[C@@H](OC(=O)/C=C/c4ccccc4)[C@@]4(O)C(C)(C)CCC[C@]34C)[C@@H](C)C1=CC(=O)O2` as well.
**A:** > 100 µM

**Q:** Please do the same for COc1ccc(NS(=O)c2ccccc2OC)cc1 (stereo not drawn) as well.
**A:** 28.2 µM

**Q:** Please do the same for `CC(=O)C(=[N+]=[N-])C(=O)OCCOC(=O)C(=[N+]=[N-])C(C)=O` as well.
**A:** > 1 µM

**Q:** Please do the same for `c1cc[c]([Sn]([S]c2cccc3cccnc23)([S]c2cccc3cccnc23)[c]2ccccc2)cc1` as well.
**A:** 0.514 µM

**Q:** Please do the same for `O=[N+]([O-])[O-].O=[N+]([O-])[O-].[Au].[Au].c1ccc([P-]c2ccccc2)cc1.c1ccc([P-]c2ccccc2)cc1` as well.
**A:** 47.5 µM

**Q:** Please do the same for `COC(=O)NC(=O)c1cn(CCCOC(=O)CCCCCCCCC(=O)OCCCn2cc(C(=O)NC(=O)OC)c(=O)[nH]c2=O)c(=O)[nH]c1=O` as well.
**A:** > 100 µM

**Q:** Please do the same for C1=CC(=[N+]2N=C(c3ccccc3)CC2c2ccccc2)C=CC1=C1SC(c2ccccc2)(c2ccccc2)c2ccccc21 (stereo not drawn) as well.
**A:** > 100 µM
